// data source = patent US11731964B2

Test system: S. aureus
MEASUREMENT_NOTES: MIC (Table 5, strain not given)
Assay type: cell-based
EXPERIMENTAL_CONTEXT: Staphylococcus aureus; S. aureus (Table 5)
Description: Bacteria were cultured in cation-adjusted Mueller Hinton Broth (for strains in Tables 1 and 4) or Brain Heart Infusion broth (for Enterococcus faecium) or Tryptic Soy Broth (all other bacteria) in a 96-well plate at 37° C. for at least 20 hours. The MIC was classified as the lowest concentration where no visual growth of bacteria was observed. The minimum bactericidal concentration (MBC) was tested by spotting 4 μL from wells with no growth onto Tryptic Soy Agar (TSA) plates. […]
Measured MIC accompanies every entry in the list below.
Lab book: enter the figure in µg/mL, no units written.

Example cases with answers are listed next.
{"MOLECULE": "O=C(Nc1nnc(-c2ccc(C(F)(F)F)cc2)o1)c1ccc(S(=O)(=O)Nc2ccccc2)cc1 [HSGN-118]", "MEASURE": "MIC", "EXPERIMENTAL_RESULT": 4}
{"MOLECULE": "C[C@@H]1C[C@H](C)CN(S(=O)(=O)c2ccc(C(=O)Nc3nnc(-c4ccccc4)o3)cc2)C1 [HSGN-180]", "MEASURE": "MIC", "EXPERIMENTAL_RESULT": 4}
{"MOLECULE": "Cc1cc(C(=O)Nc2nnc(-c3ccc(C(F)(F)F)cc3)o2)ccc1S(=O)(=O)N1CCC(C)CC1 [HSGN-195]", "MEASURE": "MIC", "EXPERIMENTAL_RESULT": 1}
{"MOLECULE": "C[C@@H]1C[C@H](C)CN(S(=O)(=O)c2csc(C(=O)Nc3nnc(-c4ccc(C(F)(F)F)cc4)o3)c2)C1 [HSGN-193]", "MEASURE": "MIC", "EXPERIMENTAL_RESULT": 0.5}

// below: MIC requested for another molecule
Identify measured MIC associated with C[C@@H]1C[C@H](C)CN(S(=O)(=O)c2ccc(C(=O)Nc3nnc(-c4cccc(C(F)(F)F)c4)o3)cc2)C1 [HSGN-122]
2
